- Target of assay: PI3Kγ (Homo sapiens)
- Construct: made in house
- Sequence (P48736 whole entry): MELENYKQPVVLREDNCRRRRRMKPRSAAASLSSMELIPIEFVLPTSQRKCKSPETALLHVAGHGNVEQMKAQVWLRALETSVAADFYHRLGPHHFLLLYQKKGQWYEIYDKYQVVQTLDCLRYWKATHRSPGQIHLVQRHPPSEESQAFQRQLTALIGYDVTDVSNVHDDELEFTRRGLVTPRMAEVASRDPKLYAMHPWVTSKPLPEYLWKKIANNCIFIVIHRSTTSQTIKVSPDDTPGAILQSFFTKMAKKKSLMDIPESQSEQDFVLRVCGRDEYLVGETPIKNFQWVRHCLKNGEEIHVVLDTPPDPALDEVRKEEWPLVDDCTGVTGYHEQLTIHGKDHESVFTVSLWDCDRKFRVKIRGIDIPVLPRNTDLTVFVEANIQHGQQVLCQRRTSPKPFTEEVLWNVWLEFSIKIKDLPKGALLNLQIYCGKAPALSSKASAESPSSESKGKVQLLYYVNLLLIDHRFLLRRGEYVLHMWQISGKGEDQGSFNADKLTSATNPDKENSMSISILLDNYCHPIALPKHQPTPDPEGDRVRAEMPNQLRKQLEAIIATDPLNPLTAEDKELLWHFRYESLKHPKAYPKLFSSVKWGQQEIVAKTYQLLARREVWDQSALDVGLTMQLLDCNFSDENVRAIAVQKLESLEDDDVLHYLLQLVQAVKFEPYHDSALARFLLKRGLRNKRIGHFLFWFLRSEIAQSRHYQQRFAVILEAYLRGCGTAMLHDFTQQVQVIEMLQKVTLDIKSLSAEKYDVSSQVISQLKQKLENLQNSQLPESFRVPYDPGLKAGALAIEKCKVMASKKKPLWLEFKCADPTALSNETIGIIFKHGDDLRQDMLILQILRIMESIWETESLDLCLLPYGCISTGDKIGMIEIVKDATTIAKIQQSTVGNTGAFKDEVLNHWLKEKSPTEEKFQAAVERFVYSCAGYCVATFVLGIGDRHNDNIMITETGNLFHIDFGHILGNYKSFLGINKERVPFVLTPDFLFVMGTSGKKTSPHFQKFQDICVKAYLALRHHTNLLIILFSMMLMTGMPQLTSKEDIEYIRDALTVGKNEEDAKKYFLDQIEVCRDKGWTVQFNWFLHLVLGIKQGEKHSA
- Test method notes: TR-FRET enzymatic activity assay, PI3Kγ
- Type: biochemical
- Stated conditions: Table 2a; same assay; read-out: PI3Kγ IC50
Recorded endpoint: IC50 (nM)

{"Structure smiles": "C[C@H](Nc1nc(N)nc(C(F)F)c1C#N)c1nc2cccc(C(F)(F)F)c2c(=O)n1-c1cc[nH]n1", "IC50 / nM": 2240}
{"Structure smiles": "CCC[C@H](Nc1nc(N)nc(N)c1Cl)c1nc2cccc(Cl)c2c(=O)n1-c1c[nH]cn1", "IC50 / nM": 5700}
{"Structure smiles": "Nc1nc(N)c(Cl)c(N[C@H](c2nc3c(F)cc(F)cc3c(=O)n2-c2cc[nH]n2)C2CC2)n1", "IC50 / nM": 6100}
{"Structure smiles": "C[C@H](Nc1nc(N)nc(N)c1C#N)c1nc2c(C(F)(F)F)cccc2c(=O)n1-c1cc[nH]n1", "IC50 / nM": 340}
{"Structure smiles": "C[C@H](Nc1nc(N)nc(C(F)F)c1C#N)c1nc2c(F)ccc(F)c2c(=O)n1-c1cc[nH]n1", "IC50 / nM": 4700}

P: C[C@H](Nc1nc(N)nc(N)c1C#N)c1nc2ccccc2c(=O)n1-c1cc[nH]n1
Q: Nc1nc(N)c(Cl)c(N[C@H](c2nc3c(C(F)(F)F)cccc3c(=O)n2-c2cc[nH]n2)C2CC2)n1
R: N#Cc1c(N)nc(N)nc1N[C@H](c1nc2cccc(Cl)c2c(=O)n1-c1cc[nH]n1)C1CCC1
Exercise: Let's sort these by IC50, smallest first. Go ahead? Reply: labels, ordered per the request.
Solution: P, R, Q
(P: 760 nM, R: 2000 nM, Q: 9300 nM)

a: C[C@H](Nc1nc(N)nc(C(F)F)c1C#N)c1nc2ccc(F)cc2c(=O)n1-c1cc[nH]n1
b: CCC[C@H](Nc1nc(N)nc(N)c1C#N)c1nc2cccc(Cl)c2c(=O)n1-c1c[nH]cn1
c: C[C@H](Nc1nc(N)nc(C(F)F)c1C#N)c1nc2c(F)ccc(Cl)c2c(=O)n1-c1cc[nH]n1
Exercise: Please give the order of these compounds when sorted by IC50, largest value leading. Please, when replying, give the labels in the order that was requested.
Solution: a, c, b
(a: 8000 nM, c: 1300 nM, b: 740 nM)
